assay-text: yeast display, Sf9 membrane polyspecificity reagent, FACS + sequencing; frameworks hold sequencing errors
reported-property: polyreactivity (PSR sort gate)

Here's what some known entries look like.
polyreactivity (PSR sort gate) for `QVQLVESGGGLVQAGGSLRLSCAASGGTFYPYAMGWYRQAPGKERELVAAISRGGGSTSYADSVKGRFTISRDNAQNTVYLQMNSLKPEDTAVYYSNAYTYYHANHEQGFGYWGQGTQVTVSS` ?
low polyreactivity

polyreactivity (PSR sort gate) for `QVQLVDSGGGLVQAGGSLSLSCAASGRIFPYNAMGWYRQAPGKERELVAGISRTGGSTYYADSVKGRFTISRDNAKNTVYLQKNCLKTEDTAAYYCGARPGAHPDRLDYWGQGTQVTVSS` ?
low polyreactivity

polyreactivity (PSR sort gate) for `QVQLVESGGGLVQAGGSLRLSCAASGRTFTYNAMGWYRQAPGKERELVASITWSGGRTYYADSVKGRFTISRDNAKNTVYLQMNSLKPEDTAVYYCAAYRWWGYITGVRGAKSIFDYWGQGTQVTVSS` ?
high polyreactivity

polyreactivity (PSR sort gate) for `QVQLVESGAGLVQAGGSLRLSCAASGFTFQYYAMGWYRQAPGKERELVATISSTDNTYYADSVKGRFTISRDNAKNTVYLQMNSLKPEDTAVYYCAARPTYRRRQGRGYWGQGTQVTVSS` ?
high polyreactivity

polyreactivity (PSR sort gate) for `QVQLVESGGGLVQAGGSLRLSCAASGIIFGIYAMGWYRQAPGKEREFVAAISWSDGSTRYADSVKGRFTISRDNAKNTVYLQMNCLKPEDTAVYYCNTDIGPLDFGEYSYPDDYWGQGTQVTVSS` ?
low polyreactivity

Would you mind listing polyreactivity (PSR sort gate) for each of the following sequences?
1. QGQLVESGGGLVQAGGSLLLICAASGGTFLTYAMGWYRQAPGKERELVAAITSGGSTKYADSVKGRFTISRDNAKNTVYLQMNSLKPEDTAVYYCAADSVRDYVLWWAYSRSDYWGQGTQVTVSS
2. QVQLVDSGGGLVQAGGSLRLSCAPYVLIFWAYAMGWYRQAPGKERELVAAISWSGARTYYADSVMGRFTISRDHAKHTVYLQMNSLKPEDTAVYYCAVGVQSSKRHDYWGQGTQVTVSS
3. QVQLVESGGGLVQAGGSLRLSCAASGIIFIGYAMGWYSQAPGKERELVAAISTRGSTTNYADSVKGRFTISRDNAKNTVYLQMNSLKPEDTAVYYCAARKYPSYRYPTGDYWGQGTQVTVSS
4. QVQLLESGGGLVQAGGSLRLSCAASGRIFWNNAMGWYRQAPGKERELVAVISTRGGRTYYADSVKGRFTISRDNANNTVNLQMNSLKPEDTAVYYCAAEFLNKAVGGVTSIYDSWGQGTQVTVSS

1. low polyreactivity
2. high polyreactivity
3. high polyreactivity
4. low polyreactivity

Would you mind listing polyreactivity (PSR sort gate) for each of the following sequences?
1. QVQLVESGGGLVQAGGSLRLSCAASGFTFTPNAMGWYRQAPGKERELVAAITWNGGTTYYADSVKGRFTISRDNAKNTVYLQMNSLKPEDTAVYYCNADGLILYDYWGQGTQVTVSS
2. QVQLVESGGGLVQAGGSLRLSCAASGFTFDYNPMGWYRQAPGKERELVAAISNTGDSTYYADSVKGRFTISRDNAKNTDYLQMNSLKPDDTAVYYCAADCLFDVYWEYDYWGQGTQVTVSS

["low polyreactivity", "low polyreactivity"]

* * *

assay-text: yeast display, Sf9 membrane polyspecificity reagent, FACS + sequencing; frameworks hold sequencing errors
reported-property: polyreactivity (PSR sort gate)

polyreactivity (PSR sort gate) for `QVHLVESGGGLVQAGGSLRLTCSASGFTFSTYAMGWYRPAPGKESEMVAVISWNGGSTYYADTVKGRFTISRYNAKNTVYLQMNSLKTEDTAVYYCAARGSFKKGYWGQGTQVTVSS` ?
high polyreactivity

polyreactivity (PSR sort gate) for `QVQLVESGGGLVQAGGSLRLSCAASGLIFRGYAMGWYRQAPGKERELVAAISKSGGSTYYADSVKGRFTISRDNAKNTVYLQMNSLKPEDTAVYYCNARKHGSRTGGYYWGQGTQVTVSS` ?
high polyreactivity

* * *

assay-text: yeast display, Sf9 membrane polyspecificity reagent, FACS + sequencing; frameworks hold sequencing errors
reported-property: polyreactivity (PSR sort gate)

Here's what some known entries look like.
polyreactivity (PSR sort gate) for `QVQLVESGGGLVQAGGSLRLSCAASGRIFAVYAMGWYRQAPGKERELVAAIRWSGVRTYYADSVKGRFTISRDNAKNTVYLQMNSLKPEDTAVYYCAAEYSGQYYSPVSFLYDYWGQGTQVTVSS` ?
high polyreactivity

polyreactivity (PSR sort gate) for `QVQLVESGGGLVQAGGSLRLSCAASGSIFQYNAMGWYRQAPGKESELVAVISWSGDTYYADSVKGRFTISRDNAKNTVYLQMNSLKPEDTAVYYCATDVLAWAPNDYWGQGTQVTVSS` ?
low polyreactivity

polyreactivity (PSR sort gate) for `QVQLVESGGGLVQAGGSLRLSCAASGYTFAVYAMGWYRQAPGKERELVAAISSDGSTNYADSVKGRFTISRDNAKNTVYFQMNSLKPEDTSVYYCAKVYKDLAGPFYDYWGQGTQVTVSS` ?
low polyreactivity

polyreactivity (PSR sort gate) for `QVQLVESGGGLVQAGGSLRISCAASGRTLFNKARGRYRQAPGKERELVAAINWSGTSTYYADSVKGRFTISRDNAKNTVYLQMNSLKPEDTAVYYCAARYSTVSTRRKPYNYWGQGTQVTVSS` ?
high polyreactivity

Read the next record carefully.
polyreactivity (PSR sort gate) for `QVQLVESGGGLVQAGGSLRLSCAASGSTFRYYAMGWYRQAPGKERELVAAITRGDSTNYADSVKGRFTISRDNAKNTVYLQMNSLKPEDTAVYYCNAGDGPDEEYDYWGQGTQVTVSS` ?
low polyreactivity

* * *

assay-text: yeast display, Sf9 membrane polyspecificity reagent, FACS + sequencing; frameworks hold sequencing errors
reported-property: polyreactivity (PSR sort gate)

Here's what some known entries look like.
polyreactivity (PSR sort gate) for `QVQLVESGGGLVQAGGSLRLSCAASGRILYLNDMGWYRQAPGKERELGAAITRRAGSTSYADSVKGRFTISRDNAKNTFYLQMNSLKPEDTAVYYCAKATSRRGFYYWGQGTQVTVSS` ?
high polyreactivity

polyreactivity (PSR sort gate) for `QVQLVESGGGLVQAGGSLRLSCAASGRILPFNAMGWYRQAPGKERELVATITRRGGSTFYADSVKGRFTMSRDNAKNTVYLQMNSLKPEDTAVYYCAKTYWYVGSSRTYNYWGQGTQVTVSS` ?
high polyreactivity

polyreactivity (PSR sort gate) for `QVQLVESGGGLVQAGGSLRLSCAASGRIFGWYDMGWYRQAPGKERELVAAISYNGARTYYADSVKGRFTISRDNAKNTVYLQMNSLKPEDTAVYYCARRYYSQYDYWGQGTQVTVSS` ?
high polyreactivity

polyreactivity (PSR sort gate) for `QVQLVESGGGLVQAGGSLRLSCAASGRTFKGNAMGWYRPAPGKERELVAVITGSGGSTYYADSVKGRFTISRDNAKNTVYLQMHSLKPEDTAVYYCAKQVRSYVRWEYDYWGQGTQGTVSS` ?
low polyreactivity

polyreactivity (PSR sort gate) for `QVQLVESGGGLVQAGGSLRLSCAASGLTFARYAMGWSRQAPGKERELVAAISSSGGTKYADSVKGRFTISRDNAKNTVYLQMNSLIPEDTAVYYCNADAVVERSSVWYYWSIYEYWGQGTQVTVSS` ?
low polyreactivity

Would you mind listing polyreactivity (PSR sort gate) for each of the following sequences?
1. QVQLVESGGGLVQAGGSLRLSCAASGFIFGGYAMGWYRQAPGKERELVAAITRGGSTDYADSVKGRFTISRDNAKNTVYLQMNSLKPEDTAVYYCAKKTPGWGKFDYWGQGTQVTVSS
2. QVQLVESGGGLVQAGGSLRLSCAASGSIFRSYTMGWYRQAPGKEREFVAAITKRGGSTYYADSVKGRFTISRDNAKNTVYLQMNSLKPEDTAVYYCAAVAGHYYYFRELGYWGQGTQVTVSS
3. QVQLVESGGGLVQAGGSLRLSCAASGRIFSRYAMGWYRQAPGKERELVAAINKSGGSTYYADSVKGRFTISRDNAKNTVYLQMNSLKPEDTAVYYCAAALGRRRTGYDYWGQGTQGTVSS

1: low polyreactivity; 2: high polyreactivity; 3: high polyreactivity

Would you mind listing polyreactivity (PSR sort gate) for each of the following sequences?
1. QVQLVESGRGLVQAGGSLRVSCAASGNTYLYYGMGWYRHAPGKERELVAAITQSGGTTYYADSVKGRFTISRDNAKNTVYFQMNTLIPEDTAVYYFAATRYYYYWYVYDDRGDYWGQGTQVSVSS
2. QVQLVESGGGLVQAGGSLRLSCAASGFIFNRYAMGWYRQAPGKERELVAAITASGGSTYYADSVKGRFTISRDNAKNTVYLQMNSLKQEDTAVYYCAARAWLYSRRYGYWGQGTQVTVSS
3. QVQLVESGGGLVQAGGSLRLSCAASGGTFRANAMVWYRQAPGKERELVAAISFRGGTTYYADSVKGRFTISRDNAKTTVYLQMNSLKPEDTAVYYCAAGRRGSYYYWGQGTQVTVSS

low polyreactivity
high polyreactivity
high polyreactivity
